test: Cytotoxicity against human SH-SY5Y cells assessed as effect on cell viability at 50 uM measured after 24 hrs by MTT assay relative to control; assay type: toxicity, cell-based; conditions: read-out: Activity
Assay Metric: viability at 24 h, 50 µM
Record the result as number plus unit.

Q: For `O=S(=O)(c1ccccc1)N(Cc1cn(-c2cccc(F)c2)nn1)c1ccc(C(O)(C(F)(F)F)C(F)(F)F)cc1` , what is its reported viability at 24 h, 50 µM?
A: 29.8%

Q: # repeat for `CC(=O)c1ccc(N(Cc2cn(-c3c(C)cccc3C)nn2)S(=O)(=O)c2ccccc2)cc1`
A: 80.4%

Q: # repeat for `CC(=O)c1ccc(-n2cc(CN(c3ccc(C(O)(C(F)(F)F)C(F)(F)F)cc3)S(=O)(=O)c3ccccc3)nn2)cc1`
A: 42.2%

Q: # repeat for `CC(=O)c1ccc(N(Cc2cn(-c3ccccc3C)nn2)S(=O)(=O)c2ccccc2)cc1`
A: 92.9%

Q: # repeat for `COc1ccc(-n2cc(CN(c3ccc(C(O)(C(F)(F)F)C(F)(F)F)cc3)S(=O)(=O)c3ccccc3)nn2)cc1`
A: 59.2%

Q: # repeat for `O=S(=O)(c1ccccc1)N(Cc1cn(-c2ccccc2)nn1)c1ccc(C(O)(C(F)(F)F)C(F)(F)F)cc1`
A: 39.5%

Q: # repeat for `O=S(=O)(c1ccccc1)N(Cc1cn(-c2ccc(F)cc2F)nn1)c1ccc(C(O)(C(F)(F)F)C(F)(F)F)cc1`
A: 86.5%

* * *

assay: Cytotoxicity against human LS180 cells assessed as effect on cell viability measured after 24 hrs by MTT assay; format: toxicity, cell-based
Assay Metric: IC50 at 24 h

Q: For `O=S(=O)(c1ccccc1)N(CC(F)(F)F)c1ccc(C(O)(C(F)(F)F)C(F)(F)F)cc1` , what is its reported IC50 at 24 h?
A: > 50 µM

Q: # repeat for `CC(=O)c1ccc(N(Cc2cn(-c3ccc(C(F)(F)F)cc3)nn2)S(=O)(=O)c2ccccc2)cc1`
A: > 50 µM

* * *

experiment: Cytotoxicity against human LS180 cells assessed as effect on cell viability at 50 uM measured after 24 hrs by MTT assay relative to control; assay type: toxicity, cell-based; settings: read-out: Activity
Assay Metric: viability at 24 h, 50 µM (%)
Give the number; % is assumed, so skip it.

Q: For `O=S(=O)(c1ccccc1)N(Cc1cn(-c2ccccc2F)nn1)c1ccc(C(O)(C(F)(F)F)C(F)(F)F)cc1` , what is its reported viability at 24 h, 50 µM?
A: 65.1

Q: # repeat for `O=S(=O)(c1ccccc1)N(Cc1cn(-c2ccc(F)cc2)nn1)c1ccc(C(O)(C(F)(F)F)C(F)(F)F)cc1`
A: 51.5

Q: # repeat for `CC(=O)c1ccc(N(Cc2cn(-c3ccc(F)cc3)nn2)S(=O)(=O)c2ccccc2)cc1`
A: 60

Q: # repeat for `CC(=O)c1ccc(N(Cc2cn(-c3ccccc3C#N)nn2)S(=O)(=O)c2ccccc2)cc1`
A: 91.8

Q: # repeat for `CC(=O)c1ccc(-n2cc(CN(c3ccc(C(O)(C(F)(F)F)C(F)(F)F)cc3)S(=O)(=O)c3ccccc3)nn2)cc1`
A: 70.7

Q: # repeat for `O=[N+]([O-])c1ccc(-n2cc(CN(c3ccc(C(O)(C(F)(F)F)C(F)(F)F)cc3)S(=O)(=O)c3ccccc3)nn2)cc1`
A: 66.2

Q: # repeat for `CC(=O)c1ccc(N(Cc2cn(-c3ccccc3C)nn2)S(=O)(=O)c2ccccc2)cc1`
A: 64.4

Q: # repeat for `CC(=O)c1ccc(N(Cc2cn(-c3cccc(C(C)=O)c3)nn2)S(=O)(=O)c2ccccc2)cc1`
A: 84.7

Q: # repeat for `CC(=O)c1ccc(N(Cc2cn(-c3ccc(C(O)(C(F)(F)F)C(F)(F)F)cc3)nn2)S(=O)(=O)c2ccccc2)cc1`
A: 103

Q: # repeat for `O=S(=O)(c1ccccc1)N(Cc1cn(-c2ccc(OC(F)(F)F)cc2)nn1)c1ccc(C(O)(C(F)(F)F)C(F)(F)F)cc1`
A: 68.7

Q: # repeat for `C#CCOC(c1ccc(N(CC#C)S(=O)(=O)c2ccccc2)cc1)(C(F)(F)F)C(F)(F)F`
A: 78.7

Q: # repeat for `Cc1ccc(-n2cc(CN(c3ccc(C(O)(C(F)(F)F)C(F)(F)F)cc3)S(=O)(=O)c3ccccc3)nn2)cc1C`
A: 80

Q: # repeat for `COC(=O)c1ccc(-n2cc(CN(c3ccc(C(C)=O)cc3)S(=O)(=O)c3ccccc3)nn2)cc1`
A: 80.6

Q: # repeat for `Cc1ccc(-n2cc(CN(c3ccc(C(O)(C(F)(F)F)C(F)(F)F)cc3)S(=O)(=O)c3ccccc3)nn2)cc1`
A: 71.9

Q: # repeat for `O=S(=O)(c1ccccc1)N(CC(F)(F)F)c1ccc(C(O)(C(F)(F)F)C(F)(F)F)cc1`
A: 73.3

Q: # repeat for `C#CCN(c1ccc(C(O)(C(F)(F)F)C(F)(F)F)cc1)S(=O)(=O)c1ccccc1`
A: 89.5

Q: # repeat for `CC(=O)c1ccc(N(Cc2cn(-c3ccc(Cl)cc3)nn2)S(=O)(=O)c2ccccc2)cc1`
A: 88.1

Q: # repeat for `CC(=O)c1ccc(N(Cc2cn(-c3ccc(C(C)=O)cc3)nn2)S(=O)(=O)c2ccccc2)cc1`
A: 87.3

Q: # repeat for `CC(=O)c1ccc(N(Cc2cn(-c3ccccc3F)nn2)S(=O)(=O)c2ccccc2)cc1`
A: 83.8

Q: # repeat for `CC(=O)c1ccc(N(Cc2cn(-c3ccc(OC(F)(F)F)cc3)nn2)S(=O)(=O)c2ccccc2)cc1`
A: 67.6

Q: # repeat for `CC(=O)c1ccc(N(Cc2cn(-c3ccc(O)c([N+](=O)[O-])c3)nn2)S(=O)(=O)c2ccccc2)cc1`
A: 96.1

Q: # repeat for `O=S(=O)(c1ccccc1)N(Cc1cn(-c2ccc(F)cc2F)nn1)c1ccc(C(O)(C(F)(F)F)C(F)(F)F)cc1`
A: 93.6
